Recorded Metric: melting point (°C)
Respond with the bare value in °C.

[ask] Report measured melting point; entry is O=C(NCc1ccc(OC(F)(F)F)cc1)Nc1cccc2[nH]ccc12
[reply] 177

[ask] Please give measured melting point of the following entry: O=C(NCc1ccc(C(F)(F)F)c(F)c1)Nc1cccc2[nH]ccc12
[reply] 198

[ask] Give the value of melting point reported for the following: O=C(NCc1ccc(Cl)c(Cl)c1)Nc1cccc2[nH]ccc12
[reply] 201

[ask] Note melting point for the compound shown: Cc1[nH]c2cccc(NC(=O)NCc3ccc(Br)cc3)c2c1C
[reply] 190

[ask] Report measured melting point; entry is O=C(NCc1ccc(Cl)c(C(F)(F)F)c1)Nc1cccc2[nH]ccc12
[reply] 197

----------
Give measured melting point for each item. Keep answers brief.
Counter-ions that a name gives are not always drawn.
Numeric only. Scale: °C

[ask] Write down melting point measured for item O=C(NCc1ccc(Br)cc1)Nc1cccc2[nH]ccc12
[reply] 198

[ask] Item O=C(NCCc1ccc(Cl)cc1Cl)Nc1cccc2[nH]ccc12 : provide melting point
[reply] 170

[ask] Consider the molecule O=C(NCc1ccc(Br)cc1)Nc1cccc2[nH]ncc12 (as salt: hydrochloride) . State its measured melting point.
[reply] 126

[ask] Entry O=C(NCc1ccc(C(F)(F)F)cc1)Nc1cccc2[nH]ccc12 needs its melting point filled in; supply it.
[reply] 178
